Provide the recorded log10 of IC50 for the entries that follow.
# Test system: Monocyte
# assayComment: Inhibition of PMA-induced oxidative burst in human monocytes preincubated for 1 hr followed by PMA stimulation and measured after 30 mins
# Format: functional, cell-based
In plain terms, each number is the log10 of measured IC50 in nM.

Exam item: Quick one: log10 of IC50 for `Cc1ccc(Sc2ccccc2N2CCN(CC(=O)O)CC2)c(C)c1` ?
Marked response: -0.46

Exam item: Quick one: log10 of IC50 for Cc1ccc(Sc2ccccc2N2CCNCC2)c(C)c1 [VORTIOXETINE] ?
Marked response: 0.46

Exam item: Quick one: log10 of IC50 for `Cc1ccc(Sc2ccccc2N2CCN(Cc3ccccc3F)CC2)c(C)c1` ?
Marked response: 0.81

Exam item: Quick one: log10 of IC50 for `Cc1ccc(Sc2ccccc2N2CCN(CC3CCCC3)CC2)c(C)c1` ?
Marked response: 0.43

Exam item: Quick one: log10 of IC50 for `Cc1ccc(Sc2ccccc2N2CCN(Cc3ccccc3C(F)(F)F)CC2)c(C)c1` ?
Marked response: 0.80
